# credit: paper PMC9482650

Biological target: T1, NHERF3_4, Q5T2W1
T1 sequence (Q5T2W1 373-468, limits assumed, looked up): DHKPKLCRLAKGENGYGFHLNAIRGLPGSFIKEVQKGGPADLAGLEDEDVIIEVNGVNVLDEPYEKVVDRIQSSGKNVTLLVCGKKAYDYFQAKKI
Assay: holdup assay
Set-up: key: below the threshold = too weak to quantify, mostly under pKd 3.1 to 4
Conditions: plain residues with an end cap or a label only (N-terminal biotin on a linker: ado-ado)

binder: LPAHHNATRL [SLC34A1, Q06495;Q06495-1]
pKd: 4.09

binder: QSLNRMEYIV [JAG1, P78504]
pKd: below the threshold

binder: CLREWCDAFL [BANF1, O75531]
pKd: 3.62

binder: YRLAQESGLV [ABCC6, O95255]
pKd: below the threshold

binder: SGSLKLMTTV [DACT1, Q9NYF0]
pKd: below the threshold

binder: LSEFKAMDSI [CTNNA1, P35221]
pKd: below the threshold

binder: DDPSTAETVL [ABCA7, Q8IZY2]
pKd: below the threshold

binder: EKKTLIGIKL [GOT1L1, Q8NHS2]
pKd: 4.74

binder: VYPNAKVELV [PDLIM4_iso2, P50479;P50479-1]
pKd: below the threshold

binder: SARSRLSSNL [HCN2, Q9UL51]
pKd: below the threshold

binder: SAAKVLTSMC [GHRHR, Q02643]
pKd: 4

binder: EVNETDDTKM [KCNJ1, P48048]
pKd: 3.48

binder: QGPVETESVV [SLC45A4, Q5BKX6]
pKd: below the threshold

binder: LPHPHSTTRV [NLGN2, Q8NFZ4]
pKd: below the threshold

binder: DDENIRTSDV [PLEKHA2, Q9HB19]
pKd: below the threshold

binder: TACCHSETVV [TGFA, P01135]
pKd: below the threshold

binder: SSALYGESDL [ACTN2, P35609]
pKd: below the threshold

binder: DDEDRLVIEI [ZNF831, Q5JPB2]
pKd: below the threshold
